Measured normalized growth values are reported for all entries that follow.
Assay Summary: chemical genetic growth profiling, strain panel (AID 1159580);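 further: tested at 20 µM; growth read once vehicle control cultures reached saturation at 30 °C; 1 = growth at the plate median or of vehicle wells; lower values mean less growth of the strain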
Assay Conditions: S. cerevisiae deletion strains, growth OD, locus YDR150W, strain NUM1, stronger effect = lower value
The whole screen tested about 5,500 compounds, of which about 2,000 (36%) were called active. About 18% were inconclusive and are not listed. The list shows a part of the results.
The response must contain the number and no unit.

Sample records with normalized growth:
Using known records, supply normalized growth for COc1c(N2CCNC(C)C2)c(F)cc2c(=O)c(C(=O)O)cn(C3CC3)c12 (stereo not given)
1.02

Using known records, supply normalized growth for CCn1cc(C(=O)O)c(=O)c2cc(F)c(N3CCNC(C)C3)c(F)c21 (stereo not given)
0.996

***
Using known records, supply normalized growth for `CSc1nc2ccccc2[nH]1`
1.02

Using known records, supply normalized growth for O=C1c2c(O)cc(O)cc2OC(c2ccc(O)c(O)c2)C1O (stereo not given)
0.987

Using known records, supply normalized growth for `COc1ccc([C@H]2Oc3c(I)c(OC)cc(OC)c3C[C@@H]2O)cc1OC`
1.02

Using known records, supply normalized growth for `CCN(CC)CCOC(=O)c1cc(Cl)c(N)cc1OC`
1

Using known records, supply normalized growth for `COc1ccc(-n2c(=S)[nH]c(=O)c3cccnc32)cc1`
0.985

Using known records, supply normalized growth for `O=[N+]([O-])c1ccc(O[C@@H]2O[C@H](CO)[C@@H](O)[C@H](O)[C@H]2F)c([N+](=O)[O-])c1`
0.991

Using known records, supply normalized growth for `O=C(c1c(F)cccc1F)N1CCN(C(=O)c2c(F)cccc2F)CC1`
1.02

Using known records, supply normalized growth for C/C=C(\C)C(=O)O[C@H]1C[C@@H](OC(C)=O)[C@@]2(C(=O)OC)CO[C@@H]3C2[C@]12CO[C@](O)(C(=O)OC)[C@H]2[C@](C)(C12O[C@@]1(C)[C@H]1C[C@@H]2OC2OC=C[C@@]21O)[C@@H]3O (stereo not given in full)
1

Using known records, supply normalized growth for `Cc1ccc(S(=O)(=O)NC(=O)NN2CCCCCC2)cc1`
1

Using known records, supply normalized growth for `Oc1cc(O)c2c(c1)O[C@H](c1cc(O)c(O)c(O)c1)[C@H](O)C2`
0.995

Using known records, supply normalized growth for Oc1cc(O)c2c(c1)OC(c1ccc(O)c(O)c1)C(O)C2 (stereo not given)
1.01

Using known records, supply normalized growth for `Cc1[nH]c2ccccc2c1CN(C)C`
1.01

Using known records, supply normalized growth for CC1CCc2cc(F)cc3c(=O)c(C(=O)O)cn1c23 (stereo not given)
0.981

----------
Measured normalized growth values are reported for all entries that follow.
Assay Summary: chemical genetic growth profiling, strain panel (AID 1159580)
Assay Conditions: S. cerevisiae deletion strains, growth OD, locus YLR102C, strain apc9, stronger effect = lower value
Screen size: about 5,500 compounds; about 2,000 (36%) were called active. Another 18% or so got no clear call; they are omitted. Some of the results follow.
The response must contain the number and no unit.

Sample records with normalized growth:
Using known records, supply normalized growth for `CN1CC(=O)N=C1N`
0.992

Using known records, supply normalized growth for CCC1(O)CC(OC2CC(N(C)C)C(OC3CC(O)C(OC4CCC(=O)C(C)O4)C(C)O3)C(C)O2)c2c(cc3c(c2O)C(=O)c2c(O)cccc2C3=O)C1C(=O)OC (centres undefined)
1.01

Using known records, supply normalized growth for CNCCC(Oc1ccc(C(F)(F)F)cc1)c1ccccc1 (centres undefined)
0.987

Using known records, supply normalized growth for `O=C(O)CCCc1ccc(N(CCCl)CCCl)cc1`
0.987

Using known records, supply normalized growth for `CC1(C)S[C@@H]2[C@H](NC(=O)[C@H](N)c3ccccc3)C(=O)N2[C@H]1C(=O)O`
0.997

***
Using known records, supply normalized growth for `CC[C@@]1(O)C[C@H](O)c2c(cc3c(c2O)C(=O)c2c(O)ccc(O)c2C3=O)[C@H]1C(=O)OC`
0.984

Using known records, supply normalized growth for `CC[C@@]1(O)C[C@H](O[C@H]2C[C@H](N(C)C)[C@H](O)[C@H](C)O2)c2c(cc3c(c2O)C(=O)c2c(O)cccc2C3=O)[C@H]1C(=O)OC`
0.901

Using known records, supply normalized growth for O=C(OCC(O)CO)c1ccccc1Nc1ccnc2cc(Cl)ccc12 (centres undefined)
0.992

Using known records, supply normalized growth for CCN1CCCC(OC(=O)C(c2ccccc2)c2ccccc2)C1 (centres undefined)
1.01

----------
Assay Summary: chemical genetic growth profiling, strain panel (AID 1159580)
Assay Conditions: S. cerevisiae deletion strains, growth OD, locus YML094W, strain GIM5, stronger effect = lower value
The campaign covered roughly 5,500 compounds. About 2,000 (36%) were called active. Another 18% or so got no clear call; they are omitted. The list shows a part of the results.
Response field label: string, one of Y (normalized growth strictly below 1) or N.

The following molecules have reported results that may help.
# check: normalized growth < 1 for `Cc1ccc(-c2csc(CC#N)n2)cc1C`
Y

# check: normalized growth < 1 for `Cc1ccc(C)n1-c1ccc(C(=O)NNS(=O)(=O)c2ccc(Cl)cc2)cc1`
N

***
# check: normalized growth < 1 for `O=C(CCc1nc(-c2ccc(Cl)cc2)no1)NNS(=O)(=O)c1cc(Cl)c(Cl)cc1Cl`
Y

----------
Assay Summary: chemical genetic growth profiling, strain panel (AID 1159580);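 further: tested at 20 µM; growth read once vehicle control cultures reached saturation at 30 °C; 1 = growth at the plate median or of vehicle wells; lower values mean less growth of the strain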
Assay Conditions: S. cerevisiae deletion strains, growth OD, locus YHR129C, strain ARP1, stronger effect = lower value
In all, about 5,500 compounds went through this assay and about 2,000 (36%) were called active. About 18% were inconclusive and are not listed. Some of the results follow.
Measured normalized growth values are reported for all entries that follow.
The response must contain the number and no unit.

Sample records with normalized growth:
Using known records, supply normalized growth for CC(=O)S[C@@H]1CC2=CC(=O)CC[C@]2(C)[C@H]2CC[C@@]3(C)[C@@H](CC[C@@]34CCC(=O)O4)C12 (some centres undefined)
1

Using known records, supply normalized growth for `NS(=O)(=O)c1cc2c(cc1Cl)NC=NS2(=O)=O`
1

Using known records, supply normalized growth for `N[C@@H](Cc1ccc(N(CCCl)CCCl)cc1)C(=O)O`
0.998

Let us move to another entry and its normalized growth.
Using known records, supply normalized growth for `CN1C2C[C@H](OC(=O)[C@H](CO)c3ccccc3)C[C@H]1[C@@H](O)C2`
1.01

----------
Assay Summary: chemical genetic growth profiling, strain panel (AID 1159580);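 further: tested at 20 µM; growth read once vehicle control cultures reached saturation at 30 °C; 1 = growth at the plate median or of vehicle wells; lower values mean less growth of the strain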
Assay Conditions: S. cerevisiae deletion strains, growth OD, locus YDR150W, strain NUM1
In all, about 5,500 compounds went through this assay and about 2,000 (36%) were called active. Another 18% or so got no clear call; they are omitted. Rule as the data show it: active = normalized growth mostly below about 0.91 (no sharp cut-off); inconclusive = no clear call, values can overlap the other calls; inactive = mostly above about 0.92. This is one part of the list.
Output constraint: value belongs to class 1 for active, class 0 for inactive

Test call for this compound, please: `O=C(CSc1ccc(Cl)cc1)Nc1ccc(F)cc1`
class 1

Test call for this compound, please: `COc1cc(OC)c2c(c1)O[C@H](c1cc(OC)c(OC)c(OC)c1)[C@H](OC(=O)c1cc(OC)c(OC)c(OC)c1)C2`
class 0

Test call for this compound, please: NC(Cc1ccc(N(CCCl)CCCl)cc1)C(=O)O (centres undefined)
class 0

Now look at this entry.
Test call for this compound, please: `CC(=O)c1c(O)c(C)c(O)c(Cc2c(O)c3c(c(C(=O)/C=C/c4ccccc4)c2O)OC(C)(C)C=C3)c1O`
class 1

----------
Assay Summary: chemical genetic growth profiling, strain panel (AID 1159580);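 further: tested at 20 µM; growth read once vehicle control cultures reached saturation at 30 °C; 1 = growth at the plate median or of vehicle wells; lower values mean less growth of the strain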
Assay Conditions: S. cerevisiae deletion strains, growth OD, locus YPR119W, strain clb2, stronger effect = lower value
Hit rate of the full screen: of about 5,500 compounds, about 2,000 (36%) were called active. Another 18% or so got no clear call; they are omitted. This is one part of the list.
Measured normalized growth values are reported for all entries that follow.
The response must contain the number and no unit.

Using known records, supply normalized growth for NCCC(O)C(=O)NC1CC(N)C(OC2OC(CN)C(O)C(O)C2N)C(OC2OC(CO)C(O)C2O)C1O (stereo not given)
0.993

***
Using known records, supply normalized growth for C[C@]12CCC(=O)C=C1C=CC1C2CC[C@@]2(C)C1CC[C@@]21CCC(=O)O1 (stereo not given in full)
0.981

Using known records, supply normalized growth for `CC(=O)Oc1cc(OC(C)=O)c2c(c1)O[C@H](c1ccc(OC(C)=O)c(OC(C)=O)c1)[C@@H](OC(C)=O)C2`
0.979

Using known records, supply normalized growth for `CC(=O)Oc1cc(OC(C)=O)c2c(c1)O[C@H](c1ccc(OC(C)=O)c(OC(C)=O)c1)[C@H](OC(C)=O)C2`
1.01

Using known records, supply normalized growth for `COc1cc(OC)c2c(c1)O[C@H](c1cc(OC)c(OC)c(OC)c1)[C@H](OC(=O)c1cc(OC)c(OC)c(OC)c1)C2`
0.995
